Quick list: z-score per entry.
- TEST DESCRIPTION: PSAC antagonists in infected red cells, primary screen, cell-based, P. falciparum Indochina, OD700, 18 h (AID 1157)
- RECORDED CONDITIONS: P. falciparum Indochina infected erythrocytes, osmotic lysis OD700, 18 h; higher = more signal, called active from +8 up or from −8 down
Could you respond with only the numeric value?

Here's what some known entries look like.
>  <SUBSTANCE SMILES>
C[C@@H](ON=C1[C@H]2CCn3c(=O)n(-c4ccccc4)c(=O)n3[C@H]2[C@H](O)[C@@H]2O[C@H]12)c1cn([C@H](CO)Cc2ccccc2)nn1

>  <z-score>
0.367

$$$$
>  <SUBSTANCE SMILES>
O=C1[C@H]2[C@H]3[C@H](O)[C@H](O)CC(=NOCc4ccccc4)[C@H]3CC[C@H]2C(=O)N1Cc1ccccc1

>  <z-score>
-0.456

$$$$
>  <SUBSTANCE SMILES>
CC(C)=CCCC(C)=CCON=C1C[C@@H](O)[C@@H](O)[C@@H]2[C@@H]3C(=O)N([C@@H](C)c4ccccc4)C(=O)[C@@H]3CC[C@H]12

>  <z-score>
-0.944

$$$$

Req: Bench note: what z-score did "O=C(NN=C1C[C@@H](O)[C@@H](O)[C@@H]2[C@@H]3C(=O)N(Cc4ccc5c(c4)OCO5)C(=O)[C@@H]3CC[C@H]12)OCc1ccccc1" show?
Resp: 1.24

Req: Subsequent entry: "CO[C@H]1COC(=O)[C@H](C)NC(=O)CC=C[C@@H](C)[C@H](OC)COC(=O)CC=C[C@@H]1C"
Resp: -0.0165

Req: Subsequent entry: "Cc1ccc(S(=O)(=O)N[C@H]2COC(=O)[C@@H](C)COC(=O)[C@H](C)NC(=O)CC=C[C@H]2C)cc1"
Resp: 0.0584

Req: Subsequent entry: "C[C@@H](c1ccccc1)N1C(=O)[C@H]2[C@H]3[C@H](O)[C@H](O)CC(=O)[C@@H]3CC[C@H]2C1=O"
Resp: -1.63
